cytotoxicity at 24 h, 10 µM listing for selected compounds.
assay: Cytotoxicity against mouse RAW264.7 cells assessed as inhibition of cell viability at 10 uM after 24 hrs by MTT assay; assay type: cell-based; conditions: read-out: INH

The following compounds have reported results that may help.
COc1ccc(S(=O)(=O)n2cc3c(n2)C(C)(C)[C@@H]2CC[C@]4(C)[C@H](CC=C5[C@@H]6CC(C)(C)CC[C@]6(C(=O)NC6CCN(Cc7ccccc7)CC6)CC[C@]54C)[C@@]2(C)C3)cc1OC: 0%
Cc1noc(C)c1S(=O)(=O)n1cc2c(n1)C(C)(C)[C@@H]1CC[C@]3(C)[C@H](CC=C4[C@@H]5CC(C)(C)CC[C@]5(C(=O)NCCN5CCCCC5)CC[C@]43C)[C@@]1(C)C2: 70.7%
CC1(C)CC[C@]2(C(=O)NCCN3CCCCC3)CC[C@]3(C)C(=CC[C@@H]4[C@@]5(C)Cc6c[nH]nc6C(C)(C)[C@@H]5CC[C@]43C)[C@@H]2C1: 0%
COc1ccc(S(=O)(=O)n2cc3c(n2)C(C)(C)[C@@H]2CC[C@]4(C)[C@H](CC=C5[C@@H]6CC(C)(C)CC[C@]6(C(=O)NCCN6CCCCC6)CC[C@]54C)[C@@]2(C)C3)cc1: 67.5%

Which cytotoxicity at 24 h, 10 µM value belongs to COc1ccc(S(=O)(=O)n2cc3c(n2)C(C)(C)[C@@H]2CC[C@]4(C)[C@H](CC=C5[C@@H]6CC(C)(C)CC[C@]6(C(=O)NC6CCN(Cc7ccccc7)CC6)CC[C@]54C)[C@@]2(C)C3)cc1 ? 6.6%

====

inhibition at 20 µM listing for selected compounds.
system: RAW264.7; assay: Antiosteoclast activity in mouse RAW264.7 cells assessed as inhibition of RANKL-induced osteoclast differentiation at 20 uM after 5 days by TRAP assay; assay type: functional; settings: RAW264.7, 120 h
I only need the number, in %, no unit after it.

CC1(C)CC[C@]2(C(=O)NCc3ccccc3)CC[C@]3(C)C(=CC[C@@H]4[C@@]5(C)Cc6cn(S(=O)(=O)c7ccc(Cl)cc7)nc6C(C)(C)[C@@H]5CC[C@]43C)[C@@H]2C1: 0
CC1(C)CC[C@]2(C(=O)NCc3ccccc3)CC[C@]3(C)C(=CC[C@@H]4[C@@]5(C)Cc6c[nH]nc6C(C)(C)[C@@H]5CC[C@]43C)[C@@H]2C1: 100
CC1(C)CC[C@]2(C(=O)NCCCN3CCOCC3)CC[C@]3(C)C(=CC[C@@H]4[C@@]5(C)Cc6cn(S(=O)(=O)c7ccc(C(C)(C)C)cc7)nc6C(C)(C)[C@@H]5CC[C@]43C)[C@@H]2C1: 97.7
Cc1noc(C)c1S(=O)(=O)n1cc2c(n1)C(C)(C)[C@@H]1CC[C@]3(C)[C@H](CC=C4[C@@H]5CC(C)(C)CC[C@]5(C(=O)NC5CCN(Cc6ccccc6)CC5)CC[C@]43C)[C@@]1(C)C2: 69.5
CC1(C)CC[C@]2(C(=O)O)CC[C@]3(C)C(=CC[C@@H]4[C@@]5(C)Cc6cn[nH]c6C(C)(C)[C@@H]5CC[C@]43C)[C@@H]2C1: 99

Which inhibition at 20 µM value belongs to CC1(C)CC[C@]2(C(=O)NCCCN3CCOCC3)CC[C@]3(C)C(=CC[C@@H]4[C@@]5(C)Cc6cn(S(=O)(=O)c7ccc(OC(F)(F)F)cc7)nc6C(C)(C)[C@@H]5CC[C@]43C)[C@@H]2C1 ? 86.3

Which inhibition at 20 µM value belongs to CC1(C)CC[C@]2(C(=O)O)CC[C@]3(C)C(=CC[C@@H]4[C@@]5(C)CC[C@H](O)C(C)(C)[C@@H]5CC[C@]43C)[C@@H]2C1 ? 82.1

Which inhibition at 20 µM value belongs to CC1(C)CC[C@]2(C(=O)NCCN3CCCCC3)CC[C@]3(C)C(=CC[C@@H]4[C@@]5(C)Cc6cn(S(=O)(=O)c7ccc(Cl)cc7)nc6C(C)(C)[C@@H]5CC[C@]43C)[C@@H]2C1 ? 100

Which inhibition at 20 µM value belongs to CC1(C)CC[C@]2(C(=O)NCCCN3CCOCC3)CC[C@]3(C)C(=CC[C@@H]4[C@@]5(C)Cc6cn(S(=O)(=O)c7ccc(F)cc7)nc6C(C)(C)[C@@H]5CC[C@]43C)[C@@H]2C1 ? 97.7

Which inhibition at 20 µM value belongs to COc1ccc(S(=O)(=O)n2cc3c(n2)C(C)(C)[C@@H]2CC[C@]4(C)[C@H](CC=C5[C@@H]6CC(C)(C)CC[C@]6(C(=O)NCCCN6CCOCC6)CC[C@]54C)[C@@]2(C)C3)cc1OC ? 50.9

Which inhibition at 20 µM value belongs to Cn1cc2c(n1)C(C)(C)[C@@H]1CC[C@]3(C)[C@H](CC=C4[C@@H]5CC(C)(C)CC[C@]5(C(=O)NCc5ccccc5)CC[C@]43C)[C@@]1(C)C2 ? 99.7
